List of Ki values.
# targetUnderTest: RAMP1-CLR ECD (CGRP); purified MBP-RAMP1 ECD-(GS)5-CLR ECD-H6 fusion protein (Homo sapiens, UniProt O60894+Q16602)
# Construct: MBP-hRAMP1.24-111-(Gly-Ser)5-hCLR.29-144-H6; made in house; host or cells: E. coli
# methodDescription: Fluorescence polarization (FP) peptide binding competition assay, CGRP receptor ECD complex
# recordedConditions: RAMP1-CLR ECD (CGRP) KI (nM), FP competition, FITC-AM W/W probe 7 nM, fusion protein 15 nM
Where no end group is shown, it is not given here.
Give just the number in nM; leave the unit off.

Challenge: I am curious: what Ki value has been reported for DKDNVAPRSKISPWGY-NH2 [Peptide Q50W] ?
Response given: 501

Challenge: I am curious: what Ki value has been reported for DKDNVAPRWMISPWGF-NH2 [S45W/K46M/Q50W/Y52F] ?
Response given: 7.94

Challenge: I am curious: what Ki value has been reported for DKDNVAPRWLMSPWGF-NH2 [S45W/K46L/I47M/Q50W/Y52F] ?
Response given: 0.78

Challenge: I am curious: what Ki value has been reported for DKDNVAPRSLISPWGF-NH2 [K46L/Q50W/Y52F] ?
Response given: 31.6

Challenge: I am curious: what Ki value has been reported for DKDNVAPRWLISPWGF-NH2 [S45W/K46L/Q50W/Y52F] ?
Response given: 1.91

Challenge: I am curious: what Ki value has been reported for FVPTDTGPWGF-NH2 [N31D/V32T/S34P/K35W/A36G] ?
Response given: 6.85

Challenge: I am curious: what Ki value has been reported for FVPTDVGPWSF-NH2 [N31D/S34P/K35W/A36S] ?
Response given: 1.32
